Recorded values, source paper PMC9490236.

stated_conditions: PAMPA
Where a SMILES comes first, the peptide text is derived from it. [ ]: non-standard residue; d: D form. dNMeF = CN[C@H](Cc1ccccc1)C(=O)O; NMeL = CN[C@@H](CC(C)C)C(=O)O; dNMeL = CN[C@H](CC(C)C)C(=O)O
value_type: PAMPA_R1

CC[C@@H](C)[C@H]1NC(=O)[C@@H](CC(C)C)N(C)C(=O)[C@@H](CC(C)C)N(C)C(=O)[C@H](CC(C)C)NC(=O)[C@@H](CC(C)C)N(C)C(=O)[C@H](Cc2ccccc2)NC(=O)[C@H](CC(C)C)NC(=O)[C@@H]2CCCN2C(=O)[C@H]2CCCN2C(=O)[C@@H]2CCCN2C(=O)[C@H](CC(C)C)NC1=O [Design D11.22] (cyclo(LF[dNMeL]L[dNMeL][dNMeL][dI]LP[dP]P)) : BQL
CC[C@H](C)[C@@H]1NC(=O)[C@H](C)NC(=O)[C@H](CC(C)C)NC(=O)[C@@H]2CCCN2C(=O)[C@@H](C(C)C)NC(=O)[C@H](CC(C)C)NC(=O)[C@@H]2CCCN2C(=O)[C@H]2CCCN2C(=O)[C@H](C)NC(=O)[C@H](Cc2ccccc2)NC(=O)[C@@H](CC(C)C)NC(=O)[C@H]2CCCN2C1=O [Design D12.8] (cyclo(L[dV]PLAI[dP][dL]FA[dP]P)) : BQL
CC[C@@H](C)[C@H]1NC(=O)[C@H](CC(C)C)NC(=O)[C@H](CC(C)C)N(C)C(=O)[C@H]2CCCN2C(=O)[C@@H](CC(C)C)NC(=O)[C@@H]2CCCN2C(=O)[C@H](CC(C)C)N(C)C(=O)[C@@H](Cc2ccccc2)N(C)C(=O)[C@H](CC(C)C)N(C)C(=O)[C@H](CC(C)C)N(C)C1=O [Design D10.12] (cyclo(L[dI][NMeL][NMeL][dNMeF][NMeL]P[dL][dP][NMeL])) : BQL
